Values from the kinase profiling compilation of Christmann-Franck et al. (2016)

# reported residual activity; entries follow
target: IGF1R (human) (UniProt P08069); assay: radiometric filter-binding kinase assay; conditions: compound 10.0 µM
Sequence (P08069 whole entry, looked up): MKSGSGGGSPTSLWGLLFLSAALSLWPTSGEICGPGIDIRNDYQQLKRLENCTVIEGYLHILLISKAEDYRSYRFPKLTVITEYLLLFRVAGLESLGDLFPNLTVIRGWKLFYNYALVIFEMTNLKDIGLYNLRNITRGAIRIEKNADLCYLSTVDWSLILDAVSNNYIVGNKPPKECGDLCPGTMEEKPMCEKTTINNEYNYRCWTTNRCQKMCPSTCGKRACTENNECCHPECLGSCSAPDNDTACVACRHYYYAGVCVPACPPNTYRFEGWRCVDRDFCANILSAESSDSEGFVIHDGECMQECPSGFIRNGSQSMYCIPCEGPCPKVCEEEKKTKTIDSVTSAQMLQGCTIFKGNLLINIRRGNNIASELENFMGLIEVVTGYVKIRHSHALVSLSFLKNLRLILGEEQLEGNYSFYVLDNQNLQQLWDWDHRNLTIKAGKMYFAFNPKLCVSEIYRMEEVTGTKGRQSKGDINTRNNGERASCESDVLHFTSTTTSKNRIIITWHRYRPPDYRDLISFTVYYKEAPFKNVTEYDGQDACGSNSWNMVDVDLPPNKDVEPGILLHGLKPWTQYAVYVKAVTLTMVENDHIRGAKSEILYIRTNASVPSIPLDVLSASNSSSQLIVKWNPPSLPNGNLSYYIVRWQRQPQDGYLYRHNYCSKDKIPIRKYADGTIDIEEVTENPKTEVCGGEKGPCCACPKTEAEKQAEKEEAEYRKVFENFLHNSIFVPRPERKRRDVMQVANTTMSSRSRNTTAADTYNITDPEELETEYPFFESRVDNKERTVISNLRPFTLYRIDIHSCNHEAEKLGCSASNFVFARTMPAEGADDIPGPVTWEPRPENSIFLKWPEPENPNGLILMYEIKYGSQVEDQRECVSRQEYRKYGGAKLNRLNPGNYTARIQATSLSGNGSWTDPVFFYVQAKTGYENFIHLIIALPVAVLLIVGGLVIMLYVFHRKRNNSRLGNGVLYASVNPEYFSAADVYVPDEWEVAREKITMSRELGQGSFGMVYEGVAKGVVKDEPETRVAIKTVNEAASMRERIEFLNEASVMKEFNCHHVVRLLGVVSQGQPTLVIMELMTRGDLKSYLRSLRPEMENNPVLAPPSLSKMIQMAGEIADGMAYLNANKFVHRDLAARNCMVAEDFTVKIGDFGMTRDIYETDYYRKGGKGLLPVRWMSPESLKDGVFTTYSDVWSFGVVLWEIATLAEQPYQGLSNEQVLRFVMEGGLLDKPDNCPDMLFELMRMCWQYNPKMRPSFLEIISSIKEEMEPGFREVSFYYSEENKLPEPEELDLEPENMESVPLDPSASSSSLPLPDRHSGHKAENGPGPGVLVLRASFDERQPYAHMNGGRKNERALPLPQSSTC

{"MOLECULE": "CC1=C(CO)C(=O)O[C@@H]([C@@H](C)[C@H]2CC[C@H]3[C@@H]4C[C@H]5O[C@]56[C@@H](O)C=CC(=O)[C@]6(C)C4CC[C@]23C)C1 (some centres not stated)", "residual activity": "113%"}
{"MOLECULE": "C[C@H]1CCCC(=O)CCC/C=C/c2cc(O)cc(O)c2C(=O)O1", "residual activity": "64%"}
{"MOLECULE": "Cc1ccc(-c2ccc3c(ccc4sc5c(c43)NC[C@@H](C)NC5=O)n2)cn1", "residual activity": "114%"}
{"MOLECULE": "Cc1ccc(=O)n(-c2ccccc2)c1", "residual activity": "102%"}
{"MOLECULE": "COc1cc2ncn(-c3cc(OCc4ccccc4S(C)(=O)=O)c(C#N)s3)c2cc1OC", "residual activity": "92%"}
{"MOLECULE": "O=C(N[C@@H](COc1ccc2[nH]c(=O)[nH]c2c1)c1ccccc1)c1cccn(Cc2ccc(F)c(F)c2)c1=O", "residual activity": "103%"}
{"MOLECULE": "NC(=O)c1cc(-c2ccnc(NC3CCCCC3)c2)nc(N2CCNCC2)c1", "residual activity": "99%"}
